System: CEM cells HIV-1 protection, formazan growth assay
Test: NCI AIDS Antiviral Assay
Details: measured here: growth of uninfected CEM cells
List of IC50 values.

>  <compound>
CC1C(=O)OC2C=CC3(C)C(=O)OC4OC5(c6ccoc6)CC1(O)C2(C)C43O5 (stereo not given)

>  <IC50>
> 200 µM

$$$$
>  <compound>
CC(C)(C)COc1ccc2c(c1)-c1nc-2nc2[nH]c(nc3nc(nc4[nH]c(n1)c1ccc(OCC(C)(C)C)cc41)-c1cc(OCC(C)(C)C)ccc1-3)c1ccc(OCC(C)(C)C)cc21

>  <IC50>
> 8.32 µM

$$$$
>  <compound>
O=C(/C=C/c1ccccc1O)c1ccccc1O

>  <IC50>
> 209 µM

$$$$
>  <compound>
O=C(O)c1ccc2c(c1)S(=O)(=O)NC2=O

>  <IC50>
> 1100 µM

$$$$
>  <compound>
CCOC(=O)/C(C1=N[C@H](C(=O)OCC)CS1)=C(\C)O

>  <IC50>
> 631 µM

$$$$
>  <compound>
Cc1ccc(N2C(=O)/C(=C3\Sc4c(nc(C)n(C)c4=O)N3c3ccccc3)SC2=S)cc1

>  <IC50>
> 3.02 µM

$$$$
>  <compound>
CC1=N/C(=C\c2cccc(F)c2)C(=O)O1

>  <IC50>
> 126 µM

$$$$
>  <compound>
O=C(NC1C2CC3CC(C2)CC1C3)/C(Cl)=C1/Sc2ccccc2NC1=O (stereo not given)

>  <IC50>
> 5.13 µM

$$$$
>  <compound>
N/C(=N\N=C(/N)C(F)(F)F)C(F)(F)F

>  <IC50>
> 200 µM

$$$$
>  <compound>
CC(C(=O)O)c1ccc2c(c1)Cc1ccccc1-2 (stereo not given)

>  <IC50>
> 200 µM

$$$$
>  <compound>
CCCCNS(=O)(=O)c1ccc(-c2ccc3c(c2)-c2ccc(S(=O)(=O)NCCCC)cc2S3(=O)=O)cc1

>  <IC50>
> 12.9 µM

$$$$
>  <compound>
Cc1c(C(=O)CC(=O)C(=O)NC2C3CC4CC(C3)CC2C4)[n+](=O)c2ccccc2n1[O-] (stereo not given)

>  <IC50>
> 12.3 µM

$$$$
>  <compound>
Nc1ccn(C2SC(CO)CC2F)c(=O)n1 (stereo not given)

>  <IC50>
> 25.1 µM

$$$$
>  <compound>
COc1ccc(-c2cc(=O)c3c(O)cccc3o2)cc1

>  <IC50>
> 200 µM

$$$$
>  <compound>
CC1(C)CC2C(/C1=N/O)C1(C)CCCC2(C)C1O (stereo not given)

>  <IC50>
> 200 µM

$$$$
